What IC50 was measured for each of the following?

Request body: readout IC50, system GCN2 (Homo sapiens), query COc1ncc(F)cc1S(=O)(=O)Nc1ccc(F)c(COc2cnc3[nH]nc(C)c3c2C(C)C)c1F [Compound 88] . Return the value.
> 1000 nM

# get_value(readout= IC50, system= GCN2 (Homo sapiens)) for COc1ncc(F)cc1S(=O)(=O)Nc1ccc(F)c(COc2cnc3[nH]nc(C)c3c2)n1 [Compound 67]
> 1000 nM

Lab request: please report IC50 under test system GCN2 (Homo sapiens) for CNc1nccn2c(CCc3c(F)ccc(NS(=O)(=O)c4cc(Cl)cnc4OC)c3F)cnc12 [Compound 31]
< 50 nM

The origin of these recorded values is patent US20240150345A1.
